procedureText: in vitro
protocolConditions: human, hela cells, % viability
Threshold check on viability at 28.5 h, 10 µM: strictly below 90% is T; on or above 90% is F.

[[record]]
molecule = "COc1cc(C(=O)NCC(=O)O)cc(Cl)c1OCC(C)C"
category = "T"

[[record]]
molecule = "CC(C)Nc1cncc(Sc2cccc(N)c2)n1"
category = "F"

[[record]]
molecule = "O=C(O)C1CCCN1S(=O)(=O)c1ccc(Cl)c(Cl)c1 (stereo not shown)"
category = "F"

[[record]]
molecule = "COC(=O)c1cn([C@H]2CO[C@H]3[C@@H]2OC[C@@H]3NC(=O)C2CC2)nn1"
category = "T"

[[record]]
molecule = "CC(=O)NC(c1nccs1)C1CCCN(C(=O)C2CCCCC2)C1 (stereo not shown)"
category = "F"

[[record]]
molecule = "Cc1noc(C)c1S(=O)(=O)NCc1ccc(C(F)(F)F)c(F)c1"
category = "F"

[[record]]
molecule = "CCC(=O)N1CCC(c2cc(-c3cccc(F)c3)n(C)n2)CC1"
category = "F"

[[record]]
molecule = "Clc1cccc(CNc2cncc(-c3cccnc3)n2)c1"
category = "F"

[[record]]
molecule = "Cc1cc(C)n(C(=O)c2cccc(S(=O)(=O)N3CCCCCC3)c2)n1"
category = "F"

[[record]]
molecule = "Cc1ccc(NC(=O)CSc2nnc3c4c5c(sc4nc(-n4nc(C)cc4C)n23)COC(C)(C)C5)cc1"
category = "F"

[[record]]
molecule = "CC(=O)Nc1ccccc1-c1nc2ccccc2nc1OCC(=O)c1ccc(Cl)cc1"
category = "F"

[[record]]
molecule = "O=[N+]([O-])c1ccccc1N/C(=N/S(=O)(=O)c1ccccc1)c1ccccc1"
category = "T"

[[record]]
molecule = "O=C(O)/C=C/c1cccc(-c2cnc3[nH]c(=O)n(C4CC4)c3n2)c1"
category = "F"


* * *

procedureText: in vitro
protocolConditions: human, hela cells, % viability
viability at 28.5 h, 10 µM by entry:
assayReadout: viability at 28.5 h, 10 µM (%)

[[record]]
compound = "COCCCn1c(CCC(=O)O)ccc1-c1cccs1"
unitname = "%"
numericvalue = 121

[[record]]
compound = "Cc1nc2ccccc2c(C)c1CC(=O)N(C)Cc1cnn(C)c1"
unitname = "%"
numericvalue = 96.1

[[record]]
compound = "COC(=O)CNC(=O)c1cc(-c2ccc(C)s2)nc2c1cnn2C(C)C"
unitname = "%"
numericvalue = 99.5

[[record]]
compound = "Cc1ccc(OCCO)cn1"
unitname = "%"
numericvalue = 91

[[record]]
compound = "C[C@H]1CN2CCCC2CN1Cc1cccc(F)c1F (stereo partly shown)"
unitname = "%"
numericvalue = 111

[[record]]
compound = "COCC(=O)N1CCN2C(=O)c3ccccc3NC(=O)[C@@H]2C1"
unitname = "%"
numericvalue = 90.6

[[record]]
compound = "O=C1COc2ccccc2C/C=C/CC2(CCN(C(=O)c3c[nH]cn3)CC2)C(=O)NCCN1"
unitname = "%"
numericvalue = 98.3

[[record]]
compound = "O=C(O)CCC(=O)N1N=C(c2ccccc2)CC1c1ccc2nccnc2c1 (stereo not shown)"
unitname = "%"
numericvalue = 86.1

[[record]]
compound = "O=C(Nc1ccccc1Nc1cc(-c2ccccc2)nn1-c1ccccc1)c1ccc(Br)cc1"
unitname = "%"
numericvalue = 84.7

[[record]]
compound = "CCCOc1ccc(Cc2nc(N(C)C)cc(N(C)C)n2)cc1"
unitname = "%"
numericvalue = 102

